The measurements presented in this section are drawn from ChEMBL document CHEMBL1132592.

assayedSystem: UniProt:P08289
Sequence (whole entry): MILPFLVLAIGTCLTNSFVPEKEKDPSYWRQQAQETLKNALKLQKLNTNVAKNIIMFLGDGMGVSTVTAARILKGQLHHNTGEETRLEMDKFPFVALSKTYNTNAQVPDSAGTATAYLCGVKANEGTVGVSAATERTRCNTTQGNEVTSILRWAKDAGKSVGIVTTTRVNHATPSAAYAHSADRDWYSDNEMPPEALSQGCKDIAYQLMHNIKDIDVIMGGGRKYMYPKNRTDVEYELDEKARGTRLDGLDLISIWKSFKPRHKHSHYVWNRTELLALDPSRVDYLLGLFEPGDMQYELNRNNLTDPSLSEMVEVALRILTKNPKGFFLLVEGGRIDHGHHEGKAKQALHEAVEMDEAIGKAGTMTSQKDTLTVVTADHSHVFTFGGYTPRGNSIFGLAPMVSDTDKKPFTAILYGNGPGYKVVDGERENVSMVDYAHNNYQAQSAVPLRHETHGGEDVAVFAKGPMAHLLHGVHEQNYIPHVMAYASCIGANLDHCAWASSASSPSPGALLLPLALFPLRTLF
protocol: Effect on alkaline phosphatase activity compared to control in culture of rat bone marrow stromal cells, 10E-5 M concentration
Assay type: tissue-based
measureName: ALP activity

In the examples that follow, each entry is paired with its recorded ALP activity.
{"molecule": "Cc1cc2c(cc1C)[C@H](C(=O)Nc1cccnc1)SCC2=O", "ALP activity": 1.3}
{"molecule": "CCOP(=O)(Cc1ccc(NC(=O)[C@@H]2SCC(=O)c3cc(CC4CCCCC4)ccc32)cc1)OCC", "ALP activity": 2}
{"molecule": "CC1COP(=O)(Cc2ccc(NC(=O)[C@H]3Cc4cc5c(cc4C(=O)[C@H](C)S3)OCO5)cc2)OC1 (stereo not given in full)", "ALP activity": 3}
{"molecule": "CCOP(=O)(Cc1ccccc1NC(=O)[C@H]1Cc2cc3c(cc2C(=O)[C@H](C)S1)OCO3)OCC", "ALP activity": 1.1}
{"molecule": "CCOP(=O)(OCC)c1ccc(NC(=O)[C@H]2Cc3cc4c(cc3C(=O)[C@H](C)S2)OCO4)cc1", "ALP activity": 1.8}

P: CCOP(=O)(Cc1ccc(NC(=O)[C@H]2Cc3cc4c(cc3C(=O)CS2)OCCO4)cc1)OCC
Q: COc1cc2c(cc1OC)C(=O)CS[C@@H](C(=O)Nc1ccc(CP3(=O)OCC(C)CO3)cc1)C2 (stereo not given in full)
INPUT: Compare reported ALP activity values for P and Q . Which is lower? Answer with the label corresponding to your selection.
OUTPUT: P
(P: 1.2, Q: 2.7)
